Data origin: paper PMC11284802

Recorded CLint scaled at 2 h, 1 µM, one value per entry.
# protocol_notes: Human hepatocyte stability
# Format: in vitro ADME
# recorded_conditions: cryopreserved hepatocytes

# cpd_smiles, units_text, CLint scaled at 2 h, 1 µM
data = [
    ("CC(=O)Nc1cccc(Nc2cc(NC3CC3)n3ncc(C#N)c3n2)c1", "mL/min/kg", 58),
    ("N#Cc1cnn2c(NC3CC3)cc(Nc3cccc(-n4cnnc4)c3)nc12", "mL/min/kg", 16),
]

====

Recorded CLint scaled at 1 h, one value per entry.
# protocol_notes: Human liver microsomal CLint
# Format: in vitro ADME
# recorded_conditions: liver microsomes
endpoint_name: CLint scaled at 1 h (L/h/kg)

# cpd_smiles, endpoint_name, units_text, readout_number
measured = [
    ("CC(=O)Nc1cccc(Nc2cc(NC3CC3)n3ncc(C#N)c3n2)c1", "CLint scaled at 1 h", "L/h/kg", 1.5),
    ("N#Cc1cnn2c(NC3CC3)cc(Nc3cccc(-n4cnnc4)c3)nc12", "CLint scaled at 1 h", "L/h/kg", 0.456),
]
